Source of measurements: PubChem BioAssay (NCI)

For each record, write down the corresponding TGI.
Tested on: SF-268 CNS
procedure.details: NCI tumour cell line growth inhibition, 48 h
Numbers only, in µM.

CC1=C(C(=O)Nc2ccccc2C)C(c2ccc(C3C(C(=O)Nc4ccccc4C)=CNC=C3C(=O)Nc3ccccc3C)cc2)C(C(=O)Nc2ccccc2C)=C(C)N1: 17.4

-- ask Look up and report measured TGI for this entry: CCC(/C(=N\Nc1c(Cl)cc(Cl)cc1Cl)c1ccccc1)n1ccnc1C (stereo not drawn)
-- reply 47.2

###

For each record, write down the corresponding TGI.
Test system: OVCAR-3 ovarian
procedure.details: NCI tumour cell line growth inhibition, 48 h

COc1cccc(-n2c(N)c(-c3nc4cc(C(F)(F)F)ccc4s3)c3ccc([N+](=O)[O-])cc3c2=O)c1: > 100 µM

Look up TGI for the entries below, preserving their order.
1. COc1ccc(C(=O)O)c(Cc2ccc3ccccc3c2)c1
2. Oc1cc2ccccc2cc1-c1n[nH]c(=S)n1-c1ccc(Cl)cc1
3. C[C@@]1(N2C(=O)OC[C@@H]2c2ccccc2)C(=O)N([C@H](CC(=O)N2CCC(N3CCCCC3)CC2)C(=O)NCc2cccc(C(F)(F)F)c2)[C@@H]1/C=C/c1ccccc1
4. CC1=C(c2cc(C(=O)Nc3nccs3)nc(NC#N)n2)Sc2ccccc2N1

-- reply
1: > 100 µM; 2: > 100 µM; 3: 3.91 µM; 4: > 100 µM
